assay: chemical genetic growth profiling, strain panel (AID 1159580);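 note: tested at 20 µM; growth read once vehicle control cultures reached saturation at 30 °C; 1 = growth at the plate median or of vehicle wells; lower values mean less growth of the strain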; conditions: S. cerevisiae deletion strains, growth OD, locus YMR058W, strain fet3, hits give low values
Screen size: about 5,500 compounds; about 2,000 (36%) were called active. Roughly 18% stayed inconclusive and do not appear here. Some of the results follow.
quantity_name: normalized growth

# compound, normalized growth
records = [
    ("C#CCCCCCCCCCCCC(=O)CC(O)COC(C)=O (configuration not stated)", "0.97 (inactive)"),
    ("C=C1CCC(OC(C)=O)/C(C)=C/C[C@@H]2[C@@H]1CC2(C)C (some centres not stated)", "1.01 (inactive)"),
    ("C=C1CCC(C2CC(=O)OC2=O)C(=O)CCC2C1CC2(C)C (configuration not stated)", "1.02 (inactive)"),
]

# next compound below
Measured normalized growth, C=C1CCC2C(CC2(C)C)C(=C)CC/C1=N\O (configuration not stated) : 1.01 (inactive)
